Recorded growth, one value per entry.
# Test system: ACHN renal
# ASSAY_REMARKS: NCI-60 one-dose screen, 48 h (100 = growth as untreated, 0 = no growth, -100 = all killed)
# RUN_PARAMETERS: 10 µM unless noted
This is part of a sample that, as a whole, favours compounds with a hit. Of some 83,000 tested, about 20% had one in any assay.
The reply should contain only the number, in %.

| COMPOUND | growth, % |
| --- | --- |
| Oc1ccc(O)c(-[n+]2ccccc2)c1 | 107 |
| CC[C@H]1[C@@H]2C=C[C@@H]3[C@H]4C/C=C\C(=O)NCCC[C@@H]5NC(=O)/C(=C(O)/C=C/[C@@H]4C[C@@H]3[C@H]2C[C@H]1C)C5=O | -84.1 |
| CN1CCN(Cn2nc(-c3cc(Cl)cc(Cl)c3Cl)n(/N=C/c3ccc(Cl)cc3)c2=S)CC1 | 100 |
| COc1cc(NC(C)CCCN2C(=O)c3ccccc3C2=O)c2nccc(C)c2c1OC (stereo not given) | 110 |
| O=C(NCCNc1nccc(-c2c(-c3cccc(O)c3)nc3sccn23)n1)c1ccccc1O | 46.1 |
| CC1(C)Cc2c(Br)c(Br)c(Br)c(OCC(O)CN3CCN(c4ccccn4)CC3)c2O1 (stereo not given) | 85.8 |

Q: Looking for the measured growth of COc1ccc(-c2c(NC(=O)Nc3ccc(Cl)c(C(F)(F)F)c3)cnn2-c2ccc(S(N)(=O)=O)cc2)cc1 , can you help?
Result: 57.5

Q: Look at this compound and give its reported growth. COc1ccc(-c2nn(-c3ccc(NC(=O)Nc4ccc(Cl)c(Cl)c4)cc3)cc2-c2ccncc2)cc1Cl
Result: 14.8

Q: Entry S=c1n(CNc2ccc(Cl)nn2)nc(-c2cc(Cl)cc(Cl)c2Cl)n1/N=C/c1ccc(Cl)cc1 : reported growth = ?
Result: 107

Q: Recorded growth for CC(C)[C@@H]1NC(=O)[C@]2(C)CSC(=N2)c2ccnc(c2)CNC(=O)C[C@@H](/C=C/CCS)OC1=O , please?
Result: 6.6

Q: For COc1ccc(N)c(S)c1 , what is its reported growth?
Result: 98.2

* * *

# Tested on: COLO 205 colon
# ASSAY_REMARKS: NCI-60 one-dose screen, 48 h (100 = growth as untreated, 0 = no growth, -100 = all killed)
# RUN_PARAMETERS: 10 µM unless noted
The panel holds about 83,000 compounds, 20% with a hit somewhere; the sample as a whole holds those more often.
MEASUREMENT_TYPE: growth (%)
Record the value in %, omitting the unit from your answer.

Q: # query: growth | item O=C(Nc1ccc(-n2cc(-c3ccncc3)c(-c3ccc(O)c(Cl)c3)n2)cc1)c1cc(C(F)(F)F)cc(C(F)(F)F)c1 | system: COLO 205 colon
Result: 82.6

Q: # returns recorded growth (system: COLO 205 colon) for CC(C)C1(C(C)C)NC(=O)NC1=O
Result: 117

Q: Quick check: growth on COLO 205 colon, item CCOC(=O)CSc1nnc(-c2cc3c([nH]c4ccccc43)c(-c3cccc(O)c3)n2)n1-c1ccc(C)cc1 ?
Result: 95.1

* * *

# Tested on: 786-0 renal
# ASSAY_REMARKS: NCI-60 one-dose screen, 48 h (100 = growth as untreated, 0 = no growth, -100 = all killed)
# RUN_PARAMETERS: 10 µM unless noted
About 83,000 compounds went through this panel and 20% of them were active in at least one assay; those are over-represented in the sample as a whole. Calls of active or inactive are those of the source. How the source made its calls: active means growth percent below 10; inactive means the rest.
MEASUREMENT_TYPE: growth

Some solved entries appear below for comparison.
| COMPOUND | ASSAY_TARGET | growth |
| --- | --- | --- |
| O=C(Cn1c2ccccc2c2ccncc21)N/N=C\c1ccc2ccccc2c1 | 786-0 renal | -3.98% (active) |
| COc1ccccc1N1CCN(CCCOc2ccc(OCCCN3CCN(c4ccccc4OC)CC3)c(C(=O)c3cc(OC)c(OC)c(OC)c3)c2)CC1 | 786-0 renal | 105% (inactive) |
| COc1ccccc1S(=O)(=O)Nc1ccc2c3c(cc(-c4cnn(C)c4)nc13)C(=O)N2C | 786-0 renal | 43.8% (inactive) |
| CN(C)c1ncc(C#Cc2c(F)cccc2F)c2ccccc12 | 786-0 renal | 105% (inactive) |
| O=C1COc2ccccc2C(=O)N1CCCCN1CCCCC1 | 786-0 renal | 82.4% (inactive) |

Q: Item under review: CC(C)(C)OC(=O)NCc1cccc(N=C=S)c1 . Reported growth?
Result: 54.9% (inactive)

Q: Which value of growth has been reported for CCN(CC)C(=O)C1CCN(C(=O)c2ccccc2)CC1 in the records?
Result: 97.3% (inactive)

Q: Request the reported growth associated with O=C(O)c1cccc(S(=O)(=O)c2ccccc2)c1
Result: 108% (inactive)

Q: Which measured growth value corresponds to Cc1nc(-c2ccc(Cl)cc2)ccc1NC(=O)Nc1cccc(C(F)(F)F)c1 ?
Result: 101% (inactive)

Q: Can you look up the measured growth of Cc1c(NC(=O)c2sc3nc4c(cc3c2N)CN(Cc2ccccc2)CC4)cccc1C(F)(F)F for me?
Result: 84.4% (inactive)

Q: Which growth value belongs to CCn1c(SCC(=O)c2ccc(Br)cc2)nnc1-c1cc2c([nH]c3ccccc32)c(-c2cccc(O)c2)n1 ?
Result: 32.9% (inactive)

Q: # get_value(readout='growth', item= O=C(Nc1ccc(-n2ccc3c(NC(=O)c4ccccc4)nccc32)cc1)Nc1ccc(Cl)c(Cl)c1 )
Result: -84% (active)

Q: Entry under review: CN(C)CCNc1nc2ccccc2c2c(=O)c3ccccc3sc12 . Reported growth?
Result: 28.6% (inactive)

Q: Can you look up the measured growth of S=C=NP1(N=C=S)=NP(N=C=S)(N=C=S)=NP(N=C=S)(N=C=S)=NP(N=C=S)(N=C=S)=N1 (stereo unspecified) for me?
Result: 89.4% (inactive)

Q: Returns the measured growth for the input compound. Input: O=C(Nc1ccc(-n2cc(-c3ccncc3)c(-c3ccc(O)c(Cl)c3)n2)cc1)c1ccc(Cl)c(Cl)c1
Result: -41.6% (active)

The measured values listed here are drawn from PubChem BioAssay (NCI).
